# pKd per entry
- measurement.target: T1, human CD3e/d (human, UniProt P07766 23-126; P04234 22-105)
- T1 construct: Bought soluble protein; also called hCD3e/d; human CD3/ed (Sino CT038-H2508H)
- T1 sequence (P07766 23-126, chain 1 of 2): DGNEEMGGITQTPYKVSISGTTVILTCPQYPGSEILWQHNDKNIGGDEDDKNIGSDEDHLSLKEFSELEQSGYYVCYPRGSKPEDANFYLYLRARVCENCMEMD
- T1 sequence (P04234 22-105, chain 2 of 2): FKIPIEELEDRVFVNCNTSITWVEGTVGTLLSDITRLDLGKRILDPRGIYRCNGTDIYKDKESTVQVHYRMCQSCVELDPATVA
- procedure.details: SPR (Carterra LSA), mAb on chip
- Method: High-throughput surface plasmon resonance (SPR) coupled kinetic experiments were performed on a Carterra LSA® instrument equipped with an HC-30M chip type (Carterra, USA). The instrument uses two microfluidic modules, a single-flow cell (SFC) and a 96 printhead, to deliver samples to the chip surface via back-and-forth cycling of a fixed sample volume. […] The data were analyzed using the Carterra Kinetics analysis software. […]
Bear in mind: pKd is minus log10 of a mol/L concentration; give just that figure.

Some binders with known pKd results, for comparison:
mAb 220 (antibody, V domains shown, VH and VL only) VH: QEQLVESGGGVVQPGGSLRLSCVASGFTFSGYGMHWVRQAPGKGLEWVAIIWYNGRKTYYAESVKGRFTISRDNSKNTLSLQMNSLRVEDTAVYYCTTGKGYNWFDPWGQGTLVTVSS VL: EIVMTQSPATLSVSPGERATLSCRASQSVSSNLAWYQQKPGQAPRLLIYGASTRATGIPARFSGSGSGTEFTLTISSLQSEDFAVYYCQQFNAWPLTFGGGTKMEIK | 7.80
mAb 79 (antibody, V domains shown, VH and VL only) VH: QVQLVQSGAEVKKPGASVKVSCKASGYIVTGYYMHWVRQAPGHGLEWMGWINPNSGGTNFAQNFQGRVTMTRDTSISTFYMDLNRLTSDDTAVYYCARGGAPVSYWFFDLWGRGTLVTVSS VL: DIQMTQSPSSLSASVGDRVTITCRASQNINSYLNWYHQKPGKAPKVLIYNTSTLKSGVPSRFSGSGSGTYFTLTISSLQPEDFATFYCQQSHSTPFTFGPGTKVDIK | 6.91
mAb 169 (antibody, V domains shown, VH and VL only) VH: EVQLVESGGGLVKTGGSLRLSCVASGFSFKKAWMNWVRQAPGKGLEWVGRIKRNTDGGTADYAAPVKGRFTLSRDDSKKTLFLQMNSLKTEDTAVYYCTTLDSSSYYVGYYYMDVWGKGTTVTVSS VL: DIQMTQSPSSVSASVGDRVIITCRASQDINNWLAWYQQKPGKAPKLLIYTASSLQSGVPSRFSGSGSGTDFILTIGSLQPEDFATYYCQQAHSLPITFGQGTRLEIK | 7.13
mAb 131 (antibody, V domains shown, VH and VL only) VH: EVQLVESGGGLVKTGGSLRISCVASGFSFKKAWMNWVRQAPGKGLEWVGRIKRNTDGGTIDYAAPVKGRFSLSRDDSKNTLFLQMNSLKTEDTAVYFCTTLDSSSYYVGYYYMDVWGKGTTVTVSS VL: DIHMTQSPSSVSASVGDRVTITCRASQDINNWLAWYQQKPGKAPKLLIYTASSLQSGVPSRFSGSGSGTDFTLTISSLQPEDFATYFCQQAHSLPITFGQGTRLGIK | 7.49

Now look at this entry.
[Q] What measured pKd goes with mAb 109 (antibody, V domains shown, VH and VL only) VH: QVQLVESGGGVVQPGRSLRLSCVASGFPFRSYGMHWVRQAPGKGLEWVAFIWYDGSNKYYADSVRGRFTISRDNFKKMVYLQMNSLRAEDTAVYYCARDLAGIYAFDVWGQGTVVTVSS VL: EIVMTQSPATLSVSPGERATLSCRASQSVSSNLAWYQQKPGQAPRLLIYGASTRATGIPARFSGSGSGTEFTLTVSSLQSEDFAIYYCQQYNNWRPLTFGGGTKVEIK ?
[A] 7.66
